Taken from PubChem BioAssay (NCI).

# System: SK-MEL-28 melanoma
# protocol.description: NCI tumour cell line growth inhibition, 48 h
Listed compounds paired with reported TGI

| chemical.smiles | TGI / µM |
| --- | --- |
| Cc1ccccc1C(=N)c1ccccc1Cc1cccc2ccccc12 | 54.1 |
| CCCCCCCCCCn1cc[n+](C)c1 | 15.1 |
| Nc1c(C(=O)Nc2cccc(C(F)(F)F)c2)sc2nc3c(cc12)CCCCC3 | 23.6 |

---

# Test system: KM12 colon
# protocol.description: NCI tumour cell line growth inhibition, 48 h

| molecule | TGI |
| --- | --- |
| COc1ccc(C)cc1-c1cc(Sc2ccccc2)c(-c2cc(C)ccc2OC)o1 | > 31.6 µM |
| CCN(C(=O)N1CCN(c2cc3c(cc2F)c(=O)c(C(=O)O)cn3C2CC2)CC1)c1nc(-c2ccc(Cl)cc2)cs1 | > 100 µM |
| O=C1CN(c2cccc(Cl)c2)C(=O)CN1CCN1CC(=O)N(c2cccc(Cl)c2)CC1=O | > 100 µM |
| c1ccc2c3[nH]c(c2c1)=Nc1ccc(cc1)-c1nc2cc(ccc2o1)N=c1[nH]c(c2ccccc12)=Nc1ccc2nc(oc2c1)-c1ccc(cc1)N=3 | > 100 µM |
| O=C(N/N=C/c1ccc(Cl)cc1)c1c(Cl)c(Cl)c(Cl)c(Cl)c1-c1nc2ccccc2[nH]1 | > 100 µM |
| COc1ccc(C2[C@@H](c3ccccc3)C(=O)N2c2cc(OC)c(OC)c(OC)c2)cc1F (stereo partly specified) | > 100 µM |

---

Collected GI50 values appear next to each entry.
# System: K-562 leukemia
# protocol.description: NCI tumour cell line growth inhibition, 48 h
Where a SMILES comes first, the peptide text is derived from it. [ ]: non-standard residue; d: D form. The star is where a group is joined. ξ: configuration not given here. X3 = COc1ccc(C(N*)c2ccc(OC)cc2)cc1; NMeF = CN[C@@H](Cc1ccccc1)C(=O)O; NMeD = CN[C@@H](CC(=O)O)C(=O)O; NMeV = CN[C@H](C(=O)O)C(C)C; ξNMeV = CNC(C(=O)O)C(C)C; Boc = CC(C)(C)OC(=O)*; ξNMeA = CNC(C)C(=O)O; ξV = CC(C)C(N)C(=O)O
test.readout: GI50

| compound | data.value |
| --- | --- |
| COc1ccc(C(NC(=O)C[C@@H](C(=O)N(C)C(C)C(=O)O)N(C)C(=O)[C@@H]2CCCN2C(=O)[C@H](C(C)C)N(C)C(=O)C(C(C)C)N(C)C(=O)[C@H](Cc2ccccc2)N(C)C(=O)C(NC(=O)OC(C)(C)C)C(C)C)c2ccc(OC)cc2)cc1 (some centres not stated) (Boc-[ξV][NMeF][ξNMeV][NMeV]P[NMeD](X3)[ξNMeA]-OH) | 18.9 µM |
| CC(C)[C@@H]1C=C2CC[C@H]3[C@](C)(CN)CCC[C@]3(C)[C@H]2CC1 | 1.96 µM |
| CCN1C(=O)N(c2ccccc2)C2NC(=S)N(/N=C/C=C/c3ccccc3OC)C21 (configuration not stated) | 0.0662 µM |
| O=C1c2cc3c(cc2-c2c1c1ccc(F)cc1c(=O)n2C[C@H](O)[C@@H](O)[C@H](O)CO)OCO3 | 0.0645 µM |
| COc1ccc(/C=N/NC(=O)c2cccc3cc[nH]c23)cc1O | 2.17 µM |
| Nc1n[nH]c2cccc(C#Cc3cccc(C(=O)Nc4ccc(CN5CCOCC5)c(C(F)(F)F)c4)c3)c12 | 0.0233 µM |
| COC[C@H]1Cn2cc(-c3nc(Nc4ccnn4C)ncc3C)nc2C(=O)N1Cc1ccc(F)c(F)c1 | 5.85 µM |
